SYSTEM TESTED: full length N-terminally FLAG-tagged PARP1 (Homo sapiens, UniProt P09874)
Sequence (P09874 whole entry): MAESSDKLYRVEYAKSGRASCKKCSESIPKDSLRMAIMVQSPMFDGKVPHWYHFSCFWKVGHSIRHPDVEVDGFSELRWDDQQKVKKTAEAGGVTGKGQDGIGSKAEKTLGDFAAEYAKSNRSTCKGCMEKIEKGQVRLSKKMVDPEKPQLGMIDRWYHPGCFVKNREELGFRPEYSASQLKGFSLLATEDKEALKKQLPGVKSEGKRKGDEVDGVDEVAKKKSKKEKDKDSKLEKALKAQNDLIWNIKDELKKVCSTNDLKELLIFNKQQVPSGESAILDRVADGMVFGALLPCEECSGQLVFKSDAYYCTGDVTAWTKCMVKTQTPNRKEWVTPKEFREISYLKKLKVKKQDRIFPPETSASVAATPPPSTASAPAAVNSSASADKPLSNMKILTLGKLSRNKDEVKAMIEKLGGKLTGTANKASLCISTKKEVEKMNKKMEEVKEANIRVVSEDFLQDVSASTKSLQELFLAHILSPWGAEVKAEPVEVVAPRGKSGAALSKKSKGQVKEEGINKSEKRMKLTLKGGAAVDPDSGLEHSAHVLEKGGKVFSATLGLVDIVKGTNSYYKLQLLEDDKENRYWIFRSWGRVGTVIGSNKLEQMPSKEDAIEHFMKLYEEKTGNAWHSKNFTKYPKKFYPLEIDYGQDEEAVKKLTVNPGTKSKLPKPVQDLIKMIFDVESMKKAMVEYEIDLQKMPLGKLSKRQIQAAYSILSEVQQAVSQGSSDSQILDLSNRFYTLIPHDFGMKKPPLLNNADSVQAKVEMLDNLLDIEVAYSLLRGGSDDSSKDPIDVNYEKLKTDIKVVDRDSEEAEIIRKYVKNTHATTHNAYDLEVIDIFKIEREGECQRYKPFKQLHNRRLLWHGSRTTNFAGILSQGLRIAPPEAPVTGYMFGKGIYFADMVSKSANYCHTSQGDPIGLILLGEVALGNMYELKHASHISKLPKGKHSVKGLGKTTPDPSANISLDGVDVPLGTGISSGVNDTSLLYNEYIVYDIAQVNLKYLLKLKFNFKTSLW
TEST SUMMARY: PARP1 probe displacement HTRF assay
REPORTED CONDITIONS: read-out: PARP1 HTRF; binned Kd, PARP1 probe displacement HTRF
Catalogue of Kd readings, one per entry.

# example entries with known answers
{"COMPOUND": "CNC(=O)c1ccc(N2CCC(N3CCC(c4nc5ccc(F)cc5c(=O)[nH]4)C3)CC2)cn1 (single isomer, unassigned) [Compound 64b]", "SYSTEM TESTED": "full length N-terminally FLAG-tagged PARP1 (Homo sapiens, UniProt P09874)", "Kd": "< 10 nM"}
{"COMPOUND": "CNC(=O)c1ccc(N2CCC(N3CCC(c4ccc(COC)c(=O)[nH]4)C3)CC2)cn1 (single isomer, unassigned) [Compound 207a]", "SYSTEM TESTED": "full length N-terminally FLAG-tagged PARP1 (Homo sapiens, UniProt P09874)", "Kd": "< 10 nM"}
{"COMPOUND": "CNC(=O)c1ccc(N2CCC(N3CCC(c4nc5ccccc5c(=O)[nH]4)C3)CC2)c(C(F)F)n1 (single isomer, unassigned) [Compound 158b]", "SYSTEM TESTED": "full length N-terminally FLAG-tagged PARP1 (Homo sapiens, UniProt P09874)", "Kd": "10 to 100 nM"}
{"COMPOUND": "CNC(=O)c1ccc(N2CCC(N3CCCC(c4ccc(OC)c(=O)[nH]4)C3)CC2)cn1 (single isomer, unassigned) [Compound 147b]", "SYSTEM TESTED": "full length N-terminally FLAG-tagged PARP1 (Homo sapiens, UniProt P09874)", "Kd": "1000 to 10000 nM"}

Turning now to a further record.
[Q] Consider the compound CNC(=O)c1ccc(N2CCC(N3CCCC(c4nc5ccccc5c(=O)[nH]4)C3)CC2)nc1 (single isomer, unassigned) [Compound 83b] and give its measured Kd.
[A] 100 to 1000 nM

====

SYSTEM TESTED: full length N-terminally FLAG-tagged PARP1 (Homo sapiens, UniProt P09874)
TEST SUMMARY: PARP1 probe displacement HTRF assay
REPORTED CONDITIONS: read-out: PARP1 HTRF; binned Kd, PARP1 probe displacement HTRF
QUANTITY: Kd

[Q] Consider the compound CNC(=O)c1ccc(N2CCC(N3CCCC(c4nc5sc(C)c(C)c5c(=O)[nH]4)C3)CC2)cn1 (single isomer, unassigned) [Compound 199a] and give its measured Kd.
[A] < 10 nM

[Q] Field entry: O=C(NCC(F)(F)F)c1ccc(N2CCC(N3CCCC(c4nc5ccccc5c(=O)[nH]4)C3)CC2)cn1 (single isomer, unassigned) [Compound 115b]
[A] 10 to 100 nM

[Q] Field entry: CNC(=O)c1ccc(N2CCC(N3CCC(c4nc5ccccc5c(=O)[nH]4)C3)CC2)cc1 (single isomer, unassigned) [Compound 80a]
[A] < 10 nM

====

SYSTEM TESTED: full length N-terminally FLAG-tagged PARP1 (Homo sapiens)
TEST SUMMARY: PARP1 probe displacement HTRF assay
REPORTED CONDITIONS: read-out: PARP1 HTRF; binned Kd, PARP1 probe displacement HTRF
pKd: −log10 of the molar value.
Catalogue of pKd readings, one per entry.

# example entries with known answers
{"COMPOUND": "CNC(=O)c1ccc(N2CCC(N3CCCC(c4nc5sc(C)c(C)c5c(=O)[nH]4)C3)CC2)cn1 (single isomer, unassigned) [Compound 199b]", "OBS VALUE": "6.00 to 7.00"}
{"COMPOUND": "CNC(=O)c1ccc(N2CCC(N3CCC(c4cc5cccc(F)c5c(=O)[nH]4)C3)CC2)nn1 (single isomer, unassigned) [Compound 209b]", "OBS VALUE": "7.00 to 8.00"}

Turning now to a further record.
[Q] Consider the compound CNC(=O)c1ccc(N2CCC(N3CCCC(c4nc5cc(F)ccc5c(=O)[nH]4)C3)CC2)cn1 (single isomer, unassigned) [Compound 108b] and give its measured pKd.
[A] 6.00 to 7.00
